Where do the numbers come from? From patent US20230272011A1.

# system: T1, human serum albumin (human, UniProt P02768 25-609)
# T1 construct: mature; Bought protein; biotinylated in the Octet and HTRF assays; also called HSA; HuSA
# procedureDetails: SPR (Biacore) binding response to HSA at pH 7.4, Affimer at 50 nM; note: unit not given here
Entries and their measured binding response follow.

# annotated cases, reported binding response shown
[
  {
    "binder": "HSA-41 K84A (designed binder) MIPRGLSEAKPATPEIQEIVDKVKPQLEEKTNETYGKLEAVQYKTQVLANFFQRRWPGSTNYYIKVRAGDNKYMHLKVFNGPWAFRNTDRGADRVLTGYQVDKNKDDELTGFHHHHHH",
    "endpoint": "binding response",
    "val": 23.5
  },
  {
    "binder": "HSA-41 Q53A (designed binder) MIPRGLSEAKPATPEIQEIVDKVKPQLEEKTNETYGKLEAVQYKTQVLANFFARRWPGSTNYYIKVRAGDNKYMHLKVFNGPWKFRNTDRGADRVLTGYQVDKNKDDELTGFHHHHHH",
    "endpoint": "binding response",
    "val": 23.5
  }
]

Now consider a different binder.
## Input Quick check: binding response of HSA-41 F85A (designed binder) MIPRGLSEAKPATPEIQEIVDKVKPQLEEKTNETYGKLEAVQYKTQVLANFFQRRWPGSTNYYIKVRAGDNKYMHLKVFNGPWKARNTDRGADRVLTGYQVDKNKDDELTGFHHHHHH ?
## Output 26.6
